# system_tested: recombinant Vps34 (Homo sapiens)
# protocol_notes: Phosphorylation of phosphatidylinositol (PI) by Vps34 in vitro, ADP detected by TR-FRET (HTRF Transcreener ADP)
# test_parameters: 10 μM ATP, 55 μg/ml PI, approximately 3 nM Vps34, 1 hour at ambient temperature; absolute IC50, mean of two independent experiments; read-out: IC50 activity range
Collected IC50 values appear next to each entry.

Incoming: Value lookup for IC50; key = C[C@@H]1COCCN1c1cc(=O)n2c(n1)N(CC(=O)C1CC1)[C@H](C(F)(F)F)CC2 [Example 241]
Outgoing: < 10 nM

Incoming: I'd like to know its IC50. The molecule in question is C[C@@H]1COC[C@@H](C)N1c1cc(=O)n2c(n1)N(Cc1cnc(Cl)s1)[C@H](C(F)(F)F)CC2 [Example 312]
Outgoing: 10 to 100 nM

---

Entries annotated with measured pIC50
# system_tested: recombinant Vps34 (Homo sapiens)
# protocol_notes: Phosphorylation of phosphatidylinositol (PI) by Vps34 in vitro, ADP detected by TR-FRET (HTRF Transcreener ADP)
# test_parameters: 10 μM ATP, 55 μg/ml PI, approximately 3 nM Vps34, 1 hour at ambient temperature; absolute IC50, mean of two independent experiments; read-out: IC50 activity range
pIC50: −log10 of the molar value.

Completed entries (count: 3):
- structure_smiles: "C[C@@H]1COCCN1c1cc(=O)n2c(n1)N(Cc1ccc(Cl)cn1)[C@H](C(F)(F)F)CC2"
  pIC50: "> 8.00"
- structure_smiles: "C[C@@H]1COCCN1c1cc(=O)n2c(n1)N(Cc1nnc[nH]1)[C@H](C(F)(F)F)CC2"
  pIC50: "> 8.00"
- structure_smiles: "C[C@@H]1COCCN1c1cc(=O)n2c(n1)N(Cc1ncco1)[C@H](C(F)(F)F)CC2"
  pIC50: "7.00 to 8.00"

Incoming: Request body: readout pIC50, system recombinant Vps34 (Homo sapiens), query CC(C)Oc1cc(CN2c3nc(N4CCOC[C@H]4C)cc(=O)n3CC[C@H]2C(F)(F)F)ccn1 . Return the value.
Outgoing: > 8.00

Incoming: Lab note: need pIC50 with recombinant Vps34 (Homo sapiens) for entry C[C@@H]1COCCN1c1cc(=O)n2c(n1)N(CC(C)(C)O)CC[C@@H]2C(F)(F)F , please look it up.
Outgoing: 7.00 to 8.00

Incoming: API: value(readout=pIC50, system=recombinant Vps34 (Homo sapiens)) for record C[C@@H]1COCCN1c1cc(=O)n2c(n1)N(Cc1ccnn1C(F)F)C(C)(C)CC2
Outgoing: 7.00 to 8.00

Incoming: Query the reported pIC50 for recombinant Vps34 (Homo sapiens); item: C[C@@H]1COCCN1c1nc2n(c(=O)c1F)C[C@@](C)(C(F)(F)F)N2CC(=O)C1CCOCC1
Outgoing: > 8.00

Incoming: Give recombinant Vps34 (Homo sapiens) pIC50 for C[C@@H]1COCCN1c1nc2n(c(=O)c1F)C[C@@](C)(C(F)(F)F)N2CC(=O)c1cccnc1
Outgoing: > 8.00

Incoming: Query pIC50 on recombinant Vps34 (Homo sapiens) for C[C@H]1COCCN1c1nc2n(c(=O)c1F)CC[C@@H](C(F)(F)F)N2CC(=O)C1CC1
Outgoing: 7.00 to 8.00

---

In this section, each of the compounds is paired with its reported IC50.
# system_tested: recombinant Vps34 (Homo sapiens, UniProt Q8NEB9)
# Sequence (Q8NEB9 whole entry): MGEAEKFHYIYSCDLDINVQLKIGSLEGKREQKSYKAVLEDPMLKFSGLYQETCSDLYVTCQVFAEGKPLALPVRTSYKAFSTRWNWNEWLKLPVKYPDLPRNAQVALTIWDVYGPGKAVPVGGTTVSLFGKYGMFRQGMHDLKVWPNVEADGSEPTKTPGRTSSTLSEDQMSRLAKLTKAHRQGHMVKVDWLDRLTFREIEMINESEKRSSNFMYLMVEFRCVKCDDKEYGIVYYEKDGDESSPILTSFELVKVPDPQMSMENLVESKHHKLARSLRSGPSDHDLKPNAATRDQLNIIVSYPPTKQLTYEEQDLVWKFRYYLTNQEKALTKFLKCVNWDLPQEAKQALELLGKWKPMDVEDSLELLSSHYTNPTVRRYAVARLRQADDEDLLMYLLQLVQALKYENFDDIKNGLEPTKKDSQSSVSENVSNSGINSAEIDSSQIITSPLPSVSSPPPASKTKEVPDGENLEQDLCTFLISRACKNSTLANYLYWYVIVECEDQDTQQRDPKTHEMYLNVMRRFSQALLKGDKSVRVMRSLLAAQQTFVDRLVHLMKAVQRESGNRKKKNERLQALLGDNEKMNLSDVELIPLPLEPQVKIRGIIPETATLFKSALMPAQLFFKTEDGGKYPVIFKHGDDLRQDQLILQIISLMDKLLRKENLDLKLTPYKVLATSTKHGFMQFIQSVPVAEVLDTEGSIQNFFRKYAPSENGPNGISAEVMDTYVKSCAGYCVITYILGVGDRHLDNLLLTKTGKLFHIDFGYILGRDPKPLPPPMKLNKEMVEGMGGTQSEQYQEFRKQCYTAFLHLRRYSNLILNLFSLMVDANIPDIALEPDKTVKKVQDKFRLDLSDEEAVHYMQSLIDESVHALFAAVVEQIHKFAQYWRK
# protocol_notes: Phosphorylation of phosphatidylinositol (PI) by Vps34 in vitro, ADP detected by TR-FRET (HTRF Transcreener ADP)
# test_parameters: 10 μM ATP, 55 μg/ml PI, approximately 3 nM Vps34, 1 hour at ambient temperature; absolute IC50, mean of two independent experiments; read-out: IC50 activity range

- compound: "CO[C@H](CN1c2nc(N3C[C@H]4CC[C@@H](C3)O4)cc(=O)n2CC[C@H]1C(F)(F)F)c1ccccc1"
  experimental_value: "< 10 nM"
- compound: "CC(C)C(=O)CN1c2nc(N3CCOC[C@@H]3C)c(F)c(=O)n2CC[C@H]1C(F)(F)F"
  experimental_value: "> 100 nM"
- compound: "C[C@@H]1COCCN1c1nc2n(c(=O)c1F)CC[C@@H](C(F)(F)F)N2Cc1cccnc1F"
  experimental_value: "< 10 nM"
- compound: "C[C@@H]1COCCN1c1nc2n(c(=O)c1F)CC[C@@H](C(F)(F)F)N2Cc1ccc(F)nc1"
  experimental_value: "< 10 nM"

Incoming: GET /values?readout=IC50&item= Cc1noc(CN2c3nc(N4CCOC[C@H]4C)cc(=O)n3C[C@@]2(C)C(F)(F)F)n1
Outgoing: 10 to 100 nM

Incoming: Could you tell me which IC50 is on file for CCC(CC)C(=O)CN1c2nc(N3CCOC[C@H]3C)c(F)c(=O)n2CC[C@H]1C(F)(F)F ?
Outgoing: < 10 nM

Incoming: Give its IC50 value. Item: C[C@@H]1COCCN1c1nc2n(c(=O)c1F)CC[C@@H](C(F)(F)F)N2Cc1cscn1
Outgoing: < 10 nM

Incoming: # lookup: IC50 of O=c1cc(N2CC3CCC(C2)O3)nc2n1CC[C@@H](C(F)(F)F)N2Cc1ccnn1C(F)F
Outgoing: 10 to 100 nM

Incoming: What measured IC50 goes with C[C@@H]1COCCN1c1cc(=O)n2c(n1)N(Cc1ccon1)C(C)(C)CC2 ?
Outgoing: 10 to 100 nM

Incoming: Any idea what IC50 was measured for CC1CN(c2nc3n(c(=O)c2F)CC[C@@H](C(F)(F)F)N3CC(=O)C2CC2)CCO1 (single isomer, unassigned) ?
Outgoing: 10 to 100 nM

Incoming: Request the reported IC50 associated with O=C(CN1c2nc(N3CC4CCC(C3)O4)cc(=O)n2CC[C@H]1C(F)(F)F)C1CC1
Outgoing: 10 to 100 nM

Incoming: Record request: IC50 value, item C[C@@H]1COCCN1c1nc2n(c(=O)c1F)CC[C@@H](C(F)(F)F)N2CC(=O)c1ncccc1F
Outgoing: < 10 nM

Incoming: Endpoint output: IC50 of C[C@@H]1COCCN1c1cc(=O)n2c(n1)N(Cc1ccnnc1)[C@H](C(F)(F)F)CC2 . Value?
Outgoing: < 10 nM

Incoming: Could you share which IC50 value was measured for C[C@@H]1COCCN1c1nc2n(c(=O)c1F)CCC(C)(C)N2Cc1ccon1 ?
Outgoing: 10 to 100 nM

Incoming: Reported IC50 for CC1(C)COCCN1c1cc(=O)n2c(n1)N(CC(=O)c1ccccc1)[C@H](C(F)(F)F)CC2 : what is it?
Outgoing: 10 to 100 nM

Incoming: Please look up its IC50: C[C@@H]1COCCN1c1cc(=O)n2c(n1)N(Cc1ccc(F)cn1)[C@H](C(F)(F)F)CC2
Outgoing: < 10 nM

Incoming: Recorded IC50 for C[C@@H]1COCCN1c1cc(=O)n2c(n1)N(CC(C)(C)O)[C@H](C(F)(F)F)CC2 , please?
Outgoing: < 10 nM

Incoming: May I ask what IC50 has been recorded for C[C@@H]1COCCN1c1cc(=O)n2c(n1)N(Cc1ccc(F)nc1)[C@H](C(F)(F)F)CC2 ?
Outgoing: < 10 nM

Incoming: Please give the measured IC50 for this compound: C[C@@H]1COCCN1c1cc(=O)n2c(n1)N(CC(=O)C1CCOCC1)[C@H](C(F)(F)F)CC2
Outgoing: < 10 nM

Incoming: // query IC50 value for entry C[C@@H]1COC[C@@H](C)N1c1cc(=O)n2c(n1)N(Cc1ccc(Cl)nc1)[C@H](C(F)(F)F)CC2
Outgoing: 10 to 100 nM

Incoming: Recorded IC50 for C[C@@H]1COCCN1c1nc2n(c(=O)c1F)CC[C@@H](C(F)(F)F)N2Cc1ccno1 , please?
Outgoing: < 10 nM

---

# system_tested: recombinant Vps34 (Homo sapiens, UniProt Q8NEB9)
# protocol_notes: Phosphorylation of phosphatidylinositol (PI) by Vps34 in vitro, ADP detected by TR-FRET (HTRF Transcreener ADP)
# test_parameters: 10 μM ATP, 55 μg/ml PI, approximately 3 nM Vps34, 1 hour at ambient temperature; absolute IC50, mean of two independent experiments; read-out: IC50 activity range
Entries and their measured IC50 follow.

Worked cases, IC50 given:
- compound: "CC(=O)CN1c2nc(N3CCOC[C@H]3C)cc(=O)n2CC[C@@]1(C)C(F)(F)F [Example 327]"
  IC50: "< 10 nM"
- compound: "C[C@@H]1COCCN1c1nc2n(c(=O)c1F)CC[C@@H](C(F)(F)F)N2Cc1noc(C(C)(C)C)n1 [Example 54]"
  IC50: "< 10 nM"

Incoming: GET /values?readout=IC50&item= C[C@@H]1COCCN1c1cc(=O)n2c(n1)N(CC(=O)N1CCOCC1)[C@H](C(F)(F)F)CC2 [Example 234]
Outgoing: 10 to 100 nM

Incoming: # input compound: Cc1cc(C(=O)CN2c3nc(N4CCOC[C@H]4C)cc(=O)n3CC[C@H]2C(F)(F)F)no1 [Example 311] ; wanted: its IC50
Outgoing: < 10 nM

Incoming: Report IC50 for Cc1nc(CN2c3nc(N4CCOC[C@H]4C)cc(=O)n3CC[C@H]2C(F)(F)F)no1 [Example 2] please.
Outgoing: < 10 nM
